test system: Moraxella catarrhalis; assay: MIC against Gram-negative bacteria: Moraxella catarrhalis; format: cell-based; conditions: M. catarrhalis; 10 h cultivation at 37° C.; 5×10^5 CFU/mL
Assay metric: MIC (μg/mL) M. catarrhalis (µg/mL)
Provide the reading as a plain figure in µg/mL.

Substance	Value units	MIC (μg/mL) M. catarrhalis
PRT817 (FGPGCEQRCQCQHGAACDHVSGACTCPAGWRGTFCE; listed as Homo sapiens)	µg/mL	25
PRT761 (RKDVCQAIDHGCEHICVNSDDSYTCECLEGFRLAEDGKRCR; listed as Homo sapiens)	µg/mL	25
PRT175 (CEHAPCHNGATCHERGHRYVCECARGYGGPNC; listed as Homo sapiens)	µg/mL	25
PRT813 (FGVNCSSSCSCGGAPCHGVTGQCRCPPGRTGEDCE; listed as Homo sapiens)	µg/mL	25

Consider the additional substance presented here.
-- ask Specify MIC (μg/mL) M. catarrhalis for PRT870 (CECFGHSNRCSYIDLLNTVICVSCKHNTRGQHCELCRLGYFRNASAQLDDENVCIE; listed as Homo sapiens) , system Moraxella catarrhalis.
-- reply 50

###

test system: Aeromonas hydrophila; assay: MIC against Gram-negative bacteria: Aeromonas hydrophila; type: cell-based; details: 96-well plate, 5×10^5 CFU/mL, 37° C., 10 h
The entries below are paired with their reported MIC against A. hydrophila.
Provide the reading as a plain figure in µg/mL.

Substance	Recorded measurement
PRT498 (CDCNPHGSVHGDCDRTSGQCVCRLGASGLRCDECEPRHILMETDCVS; listed as Homo sapiens)	12.5
PRT489 (CDNGGTWEQGQCACLPGFSGDRCQLQTRCQNG; listed as Homo sapiens)	25
PRT592 (CDCDFRGTEGPGCDKASGRCLCRPGLTGPRCDQCQRGYCNRYPVCVA; listed as Homo sapiens)	12.5

Consider the additional substance presented here.
-- ask Specify MIC against A. hydrophila for PRT459 (RTAKCEPACRHGGVCVRPNKCLCKKGYLGPQCE; listed as Homo sapiens) , system Aeromonas hydrophila.
-- reply 12.5

###

test system: Pseudomonas aeruginosa; test: MIC against Gram-negative bacteria: Pseudomonas aeruginosa; type: cell-based; settings: Pseudomonas aeruginosa; 96-well plate, 5×10^5 CFU/mL, 37° C., 10 h
The entries below are paired with their reported MIC against P. aeruginosa.
Provide the reading as a plain figure in µg/mL.

These recorded examples may help you get a feel for the data.
Substance	Value units	MIC against P. aeruginosa
PRT1219 (DHDSCVHGPCQNGGSCLRRLAVSSVLKSRESLPVIIVANEPLQPFLCKCLPGYAGSWCE; listed as Homo sapiens)	µg/mL	25
PRT1201 (DIDECALRTHTCWNDSACINLAGGFDCLCPSGPSCS; listed as Homo sapiens)	µg/mL	12.5
PRT1242 (WGPECQQQCECVRGRCSAASGECTCPPGFRGARCE; listed as Homo sapiens)	µg/mL	25
PRT1232 (IGQQCPNMCSGHGSCDHGICRCDQGYQGTECH; listed as Homo sapiens)	µg/mL	25

-- ask Quick one: give measured MIC against P. aeruginosa for PRT1235 (IGPQCEEMCNGQGSCINGTKCICDPGYSGPTCK; listed as Homo sapiens)
-- reply 25

-- ask Quick one: give measured MIC against P. aeruginosa for PRT1284 (LVDLCSPDLNPCQHEAQCVGTPDGPRCECMPGYAGDNCS; listed as Homo sapiens)
-- reply 25

-- ask Quick one: give measured MIC against P. aeruginosa for PRT1317 (APNPCWPSPCSLLAQCSVSPKGQAQCHCPENYHGDGMVCL; listed as Homo sapiens)
-- reply 50

-- ask Quick one: give measured MIC against P. aeruginosa for PRT1237 (LGPGCLDNCRGHGDCLREQCICDPGYSGPNCY; listed as Homo sapiens)
-- reply 25
